Tested on: KKA^y mice
test description: Total cholesterol lowering action and plasma anti-arteriosclerosis index enhancing action in mice (Test Example 2)
Assay type: in vivo
condition notes: Mus musculus, po, 96 h, percent reduction of plasma total cholesterol level vs non-administration group, 0.005% in powdery diet, four days
Parameter threshold = 20%. Response is fulfilled when inhibition in vivo at 0.005 % meets or exceeds it, else not fulfilled.

Query: Item Cc1oc(-c2ccco2)nc1COc1ccc(COc2ncccc2CC(=O)O)cc1 with inhibition in vivo at 0.005 % of 20% or above?
Response: not fulfilled

Query: Item Cc1sc(-c2ccccc2)nc1COc1ccc(COc2ncccc2CC(=O)O)cc1 with inhibition in vivo at 0.005 % of 20% or above?
Response: not fulfilled

Query: Item Cc1oc(-c2ccccc2)nc1COc1cc(COc2ncccc2CC(=O)O)on1 with inhibition in vivo at 0.005 % of 20% or above?
Response: not fulfilled

Query: Item Cc1ccc(CC(=O)O)c(OCc2ccc(OCc3nc(-c4ccccc4)oc3C)cc2)n1 with inhibition in vivo at 0.005 % of 20% or above?
Response: fulfilled

Query: Item COc1cc(COc2ncccc2CC(=O)O)ccc1OCc1nc(-c2ccccc2)oc1C with inhibition in vivo at 0.005 % of 20% or above?
Response: not fulfilled

Query: Item Cc1oc(-c2ccccc2)nc1COc1ccc(COc2cccc(CC(=O)O)c2)cc1 with inhibition in vivo at 0.005 % of 20% or above?
Response: not fulfilled

Query: Item Cc1oc(-c2ccccc2)nc1CCc1noc(COc2ccccc2CC(=O)O)n1 with inhibition in vivo at 0.005 % of 20% or above?
Response: not fulfilled

Query: Item Cc1oc(-c2ccccc2)nc1COc1ccc(COc2ccc(Cl)cc2CC(=O)O)cc1 with inhibition in vivo at 0.005 % of 20% or above?
Response: fulfilled

Query: Item Cc1oc(-c2ccccc2)nc1COc1cc(COc2ccccc2CC(=O)O)on1 with inhibition in vivo at 0.005 % of 20% or above?
Response: fulfilled

---

For each entry below, report its melting point value.

Query: Tell me measured melting point for Cc1sc(-c2ccccc2)nc1CCOc1cc(COc2ccccc2CC(=O)O)on1 please.
Response: 159 to 160 °C

Query: Tell me measured melting point for Cc1oc(-c2ccccc2)nc1COc1ccc(COc2ccccc2CC(=O)O)cn1 please.
Response: 123 to 125 °C

Query: Tell me measured melting point for Cc1oc(-c2ccccc2)nc1COc1ccc(COc2ccc(Cl)cc2CC(=O)O)cc1 please.
Response: 160 to 161 °C

Query: Tell me measured melting point for Cc1oc(-c2ccco2)nc1COc1ccc(COc2ccccc2CC(=O)O)cc1 please.
Response: 167 to 168 °C

Query: Tell me measured melting point for CCOc1ccc(OCc2ccccc2OCc2nc(-c3ccccc3)oc2C)cc1CCC(=O)O please.
Response: 146 to 147 °C

Query: Tell me measured melting point for Cc1sc(-c2ccccc2)nc1COc1ccc(COc2ccccc2CC(=O)O)cn1 please.
Response: 173 to 174 °C

Query: Tell me measured melting point for COc1ccc(OCc2ccc(OCc3nc(-c4ccccc4)oc3C)cc2)c(CC(=O)O)c1 please.
Response: 134 to 136 °C

Query: Tell me measured melting point for Cc1oc(-c2ccccc2)nc1COc1ccccc1COc1cccc(CC(=O)O)c1 please.
Response: 104 to 105 °C

---

For each entry below, report its melting point value.

Query: Tell me measured melting point for Cc1oc(-c2ccccc2)nc1COc1ccc(COC(=O)Cc2cccc(OCc3ccc(OCc4nc(-c5ccccc5)oc4C)cc3)c2)cc1 please.
Response: 90 to 91 °C

Query: Tell me measured melting point for Cc1oc(-c2ccccc2)nc1COc1ccc(COc2ccc(CC(=O)O)cc2)cc1 please.
Response: 166 to 167 °C

Query: Tell me measured melting point for Cc1oc(-c2ccccc2)nc1COc1ccc(COc2ncccc2CC(=O)[O-])cc1.[Li+] please.
Response: 207 to 209 °C

Query: Tell me measured melting point for CC(Nc1nc(-c2ccccc2)cs1)c1ccc(COc2ccc(CC(=O)O)cc2)cc1 (centres unmarked) please.
Response: 116 to 118 °C

Query: Tell me measured melting point for Cc1oc(-c2ccccc2)nc1COc1cc(COc2cccc(CC(=O)O)c2)on1 please.
Response: 128 to 129 °C

Query: Tell me measured melting point for Cc1oc(-c2ccccc2)nc1COc1cccc(CSc2ccc(CC(=O)O)cc2Cl)c1 please.
Response: 150 to 151 °C

Query: Tell me measured melting point for COc1ccc(COc2ccccc2CC(=O)O)cc1OCc1nc(-c2ccccc2)oc1C please.
Response: 154 to 155 °C

Query: Tell me measured melting point for Cc1oc(-c2ccccc2)nc1COc1ccc(COc2ccc(OCc3ccccc3)cc2CC(=O)O)cc1 please.
Response: 140 to 141 °C

Query: Tell me measured melting point for Cc1oc(-c2ccccc2)nc1COc1ccc(COc2cccc(CC(=O)O)c2)cc1 please.
Response: 159 to 160 °C

Query: Tell me measured melting point for Cc1oc(-c2ccccc2)nc1CCOc1ccc(COc2ccccc2CC(=O)O)cn1 please.
Response: 159 to 160 °C

Query: Tell me measured melting point for CCOc1cc(OCc2ccc(OCc3nc(-c4ccccc4)oc3C)cc2)ccc1CCC(=O)O please.
Response: 135 to 136 °C

Query: Tell me measured melting point for Cc1sc(-c2ccccc2)nc1COc1ccc(COc2ncccc2CC(=O)O)cc1 please.
Response: 128 to 129 °C

Query: Tell me measured melting point for O=C(O)Cc1ccccc1OCc1ccc(OCc2csc(-c3ccccc3)n2)cc1 please.
Response: 115 to 116 °C

Query: Tell me measured melting point for Cc1oc(-c2ccccc2)nc1COc1ccc(COc2ccccc2CC(=O)O)cc1 please.
Response: 153 to 154 °C

Query: Tell me measured melting point for Cc1oc(-c2ccccc2)nc1CCOc1ccc(COc2ncccc2CC(=O)O)cc1 please.
Response: 134 to 135 °C

Query: Tell me measured melting point for Cc1oc(-c2ccccc2)nc1COc1cccc(COc2cncc(CC(=O)O)c2)c1 please.
Response: 158 to 159 °C

Query: Tell me measured melting point for CCOc1cc(OCc2ccccc2OCc2nc(-c3ccccc3)oc2C)ccc1CCC(=O)O please.
Response: 112 to 113 °C

---

Test system: KKAY mice
test description: Hypoglycemic and hypolipidemic actions in mice (Test Example 1)
Format: in vivo
condition notes: Mus musculus, po, 96 h, percent reduction of plasma triglyceride level vs non-administration group, 0.01% in powdery diet, four days, read-out: hypolipidemic action (%)
For each entry below, report its inhibition in vivo at 0.01 % value.
Express it in %; write the number only.

Query: Tell me measured inhibition in vivo at 0.01 % for CCOc1ccc(OCc2ccc(OCc3nc(-c4ccccc4)oc3C)cc2)c(CCC(=O)O)c1 [Example 29] please.
Response: 67

Query: Tell me measured inhibition in vivo at 0.01 % for Cc1oc(-c2ccccc2)nc1COc1cccc(COc2cccc(CC(=O)O)c2)c1 [Example 32] please.
Response: 53

Query: Tell me measured inhibition in vivo at 0.01 % for CCOc1ccc(OCc2ccc(OCc3nc(-c4ccccc4)oc3C)cc2)cc1CCC(=O)O [Example 7] please.
Response: 62

Query: Tell me measured inhibition in vivo at 0.01 % for CCOc1ccc(OCc2ccc(OCc3nc(-c4ccccc4)oc3C)cc2)c(CC(=O)O)c1 [Example 26] please.
Response: 88

---

assay system: PPARγ-RXRα heterodimer (Homo sapiens, UniProt P37231)
Sequence (P37231 1-477 isoform P37231-2): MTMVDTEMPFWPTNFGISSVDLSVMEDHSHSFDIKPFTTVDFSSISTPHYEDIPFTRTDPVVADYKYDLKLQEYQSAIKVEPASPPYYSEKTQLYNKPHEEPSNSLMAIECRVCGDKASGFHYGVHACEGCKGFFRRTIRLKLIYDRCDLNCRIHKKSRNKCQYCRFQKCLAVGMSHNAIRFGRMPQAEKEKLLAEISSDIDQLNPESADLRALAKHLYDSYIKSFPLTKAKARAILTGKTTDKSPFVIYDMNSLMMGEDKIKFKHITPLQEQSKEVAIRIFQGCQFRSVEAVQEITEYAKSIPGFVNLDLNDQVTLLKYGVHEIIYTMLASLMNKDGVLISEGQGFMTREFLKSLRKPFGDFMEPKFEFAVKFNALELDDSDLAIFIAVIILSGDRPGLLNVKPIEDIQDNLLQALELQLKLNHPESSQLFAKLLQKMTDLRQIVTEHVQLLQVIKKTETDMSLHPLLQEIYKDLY
Sequence (P19793 1-462 partner): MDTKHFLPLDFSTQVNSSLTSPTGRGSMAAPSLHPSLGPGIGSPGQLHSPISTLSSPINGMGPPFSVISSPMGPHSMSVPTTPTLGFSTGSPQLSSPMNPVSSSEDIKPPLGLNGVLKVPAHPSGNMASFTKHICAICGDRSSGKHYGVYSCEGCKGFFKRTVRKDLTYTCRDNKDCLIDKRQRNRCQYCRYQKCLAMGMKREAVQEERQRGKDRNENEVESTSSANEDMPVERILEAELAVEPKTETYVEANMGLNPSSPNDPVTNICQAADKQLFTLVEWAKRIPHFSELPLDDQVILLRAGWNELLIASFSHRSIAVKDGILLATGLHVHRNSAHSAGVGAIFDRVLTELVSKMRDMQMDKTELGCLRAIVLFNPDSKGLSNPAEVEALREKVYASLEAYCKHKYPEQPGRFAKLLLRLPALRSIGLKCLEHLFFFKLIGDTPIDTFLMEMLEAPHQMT
test description: PPARγ-RXRα heterodimer ligand activity, luciferase reporter in PPARγ:RXRα:4ERPP/CHO-K1 cells (Test Example 3)
condition notes: concentration for 50% of the maximum fold induction of luciferase activity; 48 hours, CHO-K1 cells
attribute measured: EC50 (nM)
Express it in nM; write the number only.

Query: Tell me measured EC50 for Cc1ccc(CC(=O)O)c(OCc2ccc(OCc3nc(-c4ccccc4)oc3C)cc2)n1 [Example 110] please.
Response: 42

Query: Tell me measured EC50 for Cc1oc(-c2ccccc2)nc1CCc1nc(COc2ccccc2CC(=O)O)co1 [Example 99] please.
Response: 160

Query: Tell me measured EC50 for Cc1oc(-c2ccccc2)nc1COc1ccc(COc2ncccc2CC(=O)O)cc1 [Example 36] please.
Response: 33

Query: Tell me measured EC50 for Cc1oc(-c2ccccc2)nc1CCOc1ccc(COc2ccccc2CC(=O)O)cn1 [Example 119] please.
Response: 220
